Tested on: 379773-124-R-J2-PDC spheroid viability;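 note: spheroids exposed to drugs for seven days before readout; percent viability relative to DMSO vehicle control taken as 100%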
Test: Anticancer human tumor 379773-124-R-J2-PDC patient-derived endometrial carcinoma cell line growth inhibition [POLQ]
Conditions: second compound 10 µM; first compound 1 µM; stronger effect = lower value; spheroids with HUVEC and MSC
Quantity: viability, T/C

Known results for compounds:
[
  {
    "Compound": "COc1cccc2c1C(=O)c1c(O)c3c(c(O)c1C2=O)CC(O)(C(=O)CO)CC3OC1CC(N)C(O)C(C)O1 (stereo not given) + Cc1cccc(N(C)C(=O)C2C(O)CCN2c2nc(C)cc(C(F)(F)F)c2C#N)c1",
    "viability, T/C": "4.59%"
  },
  {
    "Compound": "C=CC(=O)N1CCN(c2nc(=O)n(-c3c(C)ccnc3C(C)C)c3nc(-c4c(O)cccc4F)c(F)cc23)C(C)C1 (stereo not given) + Cc1cccc(N(C)C(=O)C2C(O)CCN2c2nc(C)cc(C(F)(F)F)c2C#N)c1",
    "viability, T/C": "73.5%"
  },
  {
    "Compound": "CCCS(=O)(=O)Nc1ccc(F)c(C(=O)c2c[nH]c3ncc(-c4ccc(Cl)cc4)cc23)c1F + COC1C(OC(N)=O)C(O)C(Oc2ccc3c(O)c(NC(=O)c4ccc(O)c(CC=C(C)C)c4)c(=O)oc3c2C)OC1(C)C",
    "viability, T/C": "66.5%"
  },
  {
    "Compound": "CCc1cc2c(N3CCc4c(cc(Cn5ccnc5)cc4-c4cn(C)nc4C(F)(F)F)C3=O)cc(C)nc2c(OC)n1 + Nc1ccc(C#CCN(C(=O)Cc2ncc(C(F)(F)F)cc2C(F)(F)F)c2ccc(F)cc2)nn1",
    "viability, T/C": "56%"
  }
]

Then this compound:
Enquiry: Sample CCCS(=O)(=O)Nc1ccc(F)c(C(=O)c2c[nH]c3ncc(-c4ccc(Cl)cc4)cc23)c1F + Cc1cccc(N(C)C(=O)C2C(O)CCN2c2nc(C)cc(C(F)(F)F)c2C#N)c1 — what was its viability, T/C?
Return: 83.9%
